Each entry below carries its recorded SH2 binding enrichment.
target-desc: Grb2 SH2 (UniProt P62993)
Sequence (P62993 whole entry, looked up, the tested form may be a part): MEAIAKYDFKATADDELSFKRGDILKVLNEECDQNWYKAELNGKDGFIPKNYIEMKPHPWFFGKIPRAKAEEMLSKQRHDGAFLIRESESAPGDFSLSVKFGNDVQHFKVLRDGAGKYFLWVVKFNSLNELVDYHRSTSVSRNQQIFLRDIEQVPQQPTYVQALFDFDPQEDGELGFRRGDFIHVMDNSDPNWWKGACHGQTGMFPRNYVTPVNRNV
measurement-notes: SH2 binding enrichment of the phosphorylated peptide, bacterial display (enrichment ratio); higher = better substrate or ligand; peptides without Tyr show the background;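 further: peptide library displayed on the E. coli surface as eCPX fusions, selected cells deep-sequenced, score is each peptide's frequency after selection divided by its frequency in the input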

For orientation, consider the following solved cases.
sequence-text	target-desc	SH2 binding enrichment
GHLYACDWISI [BEST1_Y227_Y227C]	Grb2 SH2 (UniProt P62993)	0.799
EVTLTYATGIK [NFKB1_Y485_T489I]	Grb2 SH2 (UniProt P62993)	0.916
TKDTFYKQPMF [GBA_Y451]	Grb2 SH2 (UniProt P62993)	0.571
TIWDSYTTNKV [GNB1_Y85_I80T]	Grb2 SH2 (UniProt P62993)	0.855
GSETPYVDRTP [ESS2_Y335]	Grb2 SH2 (UniProt P62993)	0.814

Query: Form field: reported SH2 binding enrichment of VMLENYSNLLS [ZFP69_Y109_V113L]
Reply: 0.899

Query: Repeat for the following sequence: KDHPDYKFPPR [SOX10_Y171_Q174P_YF]
Reply: 1

Query: What about DYYDLYGGEKF [PTPN11_Y66] ?
Reply: 1.21

Query: Also PVVKLYATEGR [RP1_Y199_D202E] ?
Reply: 0.966

Query: Quick one: GNLQENLTRHV [TGFBR2_Y336_Y336N]
Reply: 0.698

Query: Then QMQNPYSSHSS [MUC13_Y501_R503S] ?
Reply: 0.921

Query: Follow-up entry: RNESFYDTFST [EFCAB3_Y372]
Reply: 0.826

Query: Also SRIWVYNHFRW [BRCA2_Y2621_YF] , if possible.
Reply: 1.15

Query: Same thing, different sequence: KANEYYPVVLI [ADAMTS18_Y765]
Reply: 0.683

Query: Repeat for the following sequence: AQPHTYEEPGR [EPHA8_Y616_E612Q]
Reply: 1.08

Query: Also need LKVDVYRRSHK [FUT3_Y222_G223R] , thanks.
Reply: 1.08

Query: Also, QYQEKYKQMEQ [HCN4_Y531_V534M] please.
Reply: 0.891
